Data origin: PubChem BioAssay AID720648

Measured inhibition accompanies every entry in the list below.
Molecular target: Disintegrin and metalloproteinase domain-containing protein 17 (Homo sapiens)
Assay: inhibition of ADAM17 peptide cleavage – biochemical, QFRET, primary screen (AID 720648);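 further: 0% = DMSO-only wells as the low control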
Settings: recombinant ADAM17, EDANS/DABCYL FRET peptide cleavage; at 6.95 µM; hits give high values
The campaign covered roughly 370,000 compounds. About 3,100 (0.84%) were called active. Many of the other results were omitted from the sample, so actives are more common in it than they were.
Give just the numeric value; % need not be written.

Sample answers from the record:
>>> numeric_value("COC(=O)C1CN(CC(C)C)CCS(=O)(=O)N1Cc1ccc(C)cc1 (configuration not stated)")
-8.74
>>> numeric_value("Cn1c(=O)c2sccc2n(Cc2ccc(Br)cc2)c1=O")
0.1
>>> numeric_value("COc1cccc(/C=C2\\CC3(OC(C)=O)CCCN2C3)c1 (configuration not stated)")
3.86

// below: inhibition requested for another molecule
Kindly note the recorded inhibition for O=C1CCC(C(=O)OCC(=O)Nc2ccc(OC(F)F)cc2)=NN1 , which is 5.95
